All values here come from patent US9096598B2.

biological target: JAK3 (Homo sapiens, UniProt P52333); construct: recombinant purified GST-tagged catalytic domain for each enzyme; assay: Jak Biochemical HTRF Assay (JAK3); settings: recombinant purified GST-tagged catalytic domain, [ATP] 2.9 μM, values given as range classes
Sequence (P52333 822-1111 limits assumed): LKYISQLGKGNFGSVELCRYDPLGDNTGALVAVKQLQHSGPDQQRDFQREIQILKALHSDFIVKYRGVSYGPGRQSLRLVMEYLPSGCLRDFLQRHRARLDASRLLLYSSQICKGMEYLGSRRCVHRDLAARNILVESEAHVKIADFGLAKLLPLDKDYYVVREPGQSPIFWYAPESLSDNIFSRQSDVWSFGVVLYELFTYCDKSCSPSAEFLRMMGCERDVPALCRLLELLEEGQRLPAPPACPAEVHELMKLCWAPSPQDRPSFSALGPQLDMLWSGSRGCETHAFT
parameterMeasured: IC50

input: Which IC50 reading was recorded for the molecule CC(C)[C@H](Nc1cncc(-c2c[nH]c3ncc(CNC(=O)CC(F)(F)F)cc23)c1)C(=O)NCC(F)(F)F [Example 10-10] ?
output: 0.01 to 0.5 µM

input: Please give the measured IC50 for this molecule: N#Cc1cnc2[nH]cc(-c3cncc(N[C@@H]4CCCC[C@@H]4C(=O)NCC(F)(F)F)c3)c2c1 [Example 1-38]
output: ≤ 0.01 µM

input: Param item = CC(C)C(Nc1cncc(-c2c[nH]c3ncc(NS(C)(=O)=O)cc23)c1)C(=O)NCC(F)(F)F (racemic) [Example 5-3] ; retrieve measured IC50.
output: 0.01 to 0.5 µM

input: Given CC(C)[C@@H](Nc1cncc(-c2c[nH]c3ncc(C(=O)N(C)C)cc23)c1)C(=O)NCC(F)(F)F [Example 3-1] , state its recorded IC50.
output: 0.01 to 0.5 µM

input: IC50 lookup needed for C/C=C/C(=O)NCc1cnc2[nH]cc(-c3cncc(N[C@H](C(=O)NCC(F)(F)F)C(C)C)c3)c2c1 [Example 10-4] , thanks.
output: ≤ 0.01 µM

input: Given the entry CC(C)[C@H](Nc1cncc(-c2c[nH]c3ncc(OC4CCOCC4)cc23)c1)C(=O)NCC(F)(F)F [Example 2-9] , report its measured IC50.
output: ≤ 0.01 µM

input: Return reported IC50; argument: COCc1cnc2[nH]cc(-c3cncc(N[C@@H](C(=O)NCC(F)(F)F)C(C)C)c3)c2c1 [Example 9-9]
output: ≤ 0.01 µM

input: Please give the measured IC50 for this molecule: C[C@@H](Nc1cncc(-c2c[nH]c3ncc(F)cc23)c1)C(=O)NCC(F)(F)F [Example 1-30]
output: 0.01 to 0.5 µM

input: // returns reported IC50 for input CC(C)[C@@H](Nc1cncc(-c2c[nH]c3ncc(C(=O)NCC4(O)CC4)cc23)c1)C(=O)NCC(F)(F)F [Example 3-14]
output: ≤ 0.01 µM

input: // IC50 lookup, key: CC(C)C(Nc1cncc(-c2c[nH]c3ncc(NC(=O)N[C@@H](C)C(=O)O)cc23)c1)C(=O)NCC(F)(F)F (stereo partly drawn) [Example 6-4]
output: ≤ 0.01 µM

input: Can you share its IC50? I mean this molecule: CC(C)[C@H](Nc1cncc(-c2c[nH]c3ncc(OCCCN(C)C)cc23)c1)C(=O)NCC(F)(F)F [Example 2-14]
output: ≤ 0.01 µM

* * *

// reported IC50 per item
target: JAK2 (Homo sapiens); construct: recombinant purified GST-tagged catalytic domain for each enzyme; purchased Invitrogen M4290; test: Jak Biochemical HTRF Assay (JAK2); settings: recombinant purified GST-tagged catalytic domain, [ATP] 8.5 μM, values given as range classes

Recorded results for 2 molecules are shown here.
1. CC(C)[C@@H](Nc1cnnc(-c2c[nH]c3ncc(Cl)cc23)n1)C(=O)NCC(F)(F)F [Example 1-3] :: 10 to 500 nM
2. CC(C)[C@H](Nc1cncc(-c2c[nH]c3ncc(OCCc4ccccc4)cc23)c1)C(=O)NCC(F)(F)F [Example 2-7] :: 10 to 500 nM

input: // IC50 lookup, key: CC(C)[C@@H](Nc1cnnc(-c2c[nH]c3ncc(C(N)=O)cc23)n1)C(=O)NCC(F)(F)F [Example 1-18]
output: 10 to 500 nM

input: So what's the measured IC50 for this one? C[C@@H](Nc1cncc(-c2c[nH]c3ncc(S(C)(=O)=O)cc23)c1)C(=O)NCC(F)(F)F [Example 1-34]
output: > 500 nM

input: Consider the molecule shown here: C[C@@H](Nc1cncc(-c2c[nH]c3ncc(C#N)cc23)c1)C(=O)NCC(F)(F)F [Example 1-32] What is its recorded IC50?
output: 10 to 500 nM

input: So what does the record say about IC50 for CC(C)(Nc1cnnc(-c2c[nH]c3ncc(F)cc23)n1)C(=O)NCC(F)(F)F [Example 1-6] ?
output: 10 to 500 nM

input: Look at this molecule and give its reported IC50. CC(C)C(Nc1cncc(-c2c[nH]c3ncc(CNC(=O)C4CCCC4)cc23)c1)C(=O)NCC(F)(F)F (stereo not shown) [Example 10-1]
output: > 500 nM

* * *

target: JAK3 (Homo sapiens); construct: recombinant purified GST-tagged catalytic domain for each enzyme; assay: Jak Biochemical HTRF Assay (JAK3); conditions: recombinant purified GST-tagged catalytic domain, [ATP] 2.9 μM, values given as range classes
parameterMeasured: IC50

1. CCCNC(=O)Nc1cnc2[nH]cc(-c3cncc(NC(C(=O)NCC(F)(F)F)C(C)C)c3)c2c1 (centres unmarked) [Example 6-2] :: ≤ 10 nM
2. CC(C)[C@@H](Nc1cncc(-c2c[nH]c3ncc(NS(C)(=O)=O)cc23)c1)C(=O)NCC(F)(F)F [Example 5-5] :: 10 to 500 nM
3. O=C(NCC(F)(F)F)[C@H]1CCCC[C@H]1Nc1cnnc(-c2c[nH]c3ncc(F)cc23)n1 [Example 1-21] :: 10 to 500 nM
4. COCc1cnc2[nH]cc(-c3nncc(N[C@@H](C(=O)NCC(F)(F)F)C(C)C)n3)c2c1 [Example 9-8] :: 10 to 500 nM
5. O=C(NCC(F)(F)F)C(Nc1cncc(-c2c[nH]c3ncc(Cl)cc23)c1)C1CC1 (centres unmarked) [Example 1-48] :: ≤ 10 nM

input: What is its IC50 for JAK3 (Homo sapiens)? Entry: O=C(NCC(F)(F)F)[C@H]1CCCC[C@H]1Nc1cnnc(-c2c[nH]c3ncc(Cl)cc23)n1 [Example 1-19]
output: 10 to 500 nM

input: What measured IC50 is associated with CC(C)[C@H](Nc1cncc(-c2c[nH]c3ncc(OCCN4CCCC4=O)cc23)c1)C(=O)NCC(F)(F)F [Example 2-10] on JAK3 (Homo sapiens)?
output: ≤ 10 nM

input: Item: NC(=O)c1cnc2[nH]cc(-c3cncc(N[C@@H]4CCCC[C@@H]4C(=O)NCC(F)(F)F)c3)c2c1 [Example 1-40] Test system: JAK3 (Homo sapiens) Read-out: IC50 Value: ?
output: ≤ 10 nM

input: Find IC50 (JAK3 (Homo sapiens)) for the entry CC(C)[C@@H](Nc1cncc(-c2c[nH]c3ncc(Cl)cc23)c1)C(=O)NCC(F)(F)F (single isomer, unassigned) [Example 1-1]
output: ≤ 10 nM

* * *

target: JAK2 (Homo sapiens, UniProt O60674); construct: recombinant purified GST-tagged catalytic domain for each enzyme; test: Jak Biochemical HTRF Assay (JAK2); details: recombinant purified GST-tagged catalytic domain, [ATP] 8.5 μM, values given as range classes
Sequence (O60674 849-1124 limits assumed): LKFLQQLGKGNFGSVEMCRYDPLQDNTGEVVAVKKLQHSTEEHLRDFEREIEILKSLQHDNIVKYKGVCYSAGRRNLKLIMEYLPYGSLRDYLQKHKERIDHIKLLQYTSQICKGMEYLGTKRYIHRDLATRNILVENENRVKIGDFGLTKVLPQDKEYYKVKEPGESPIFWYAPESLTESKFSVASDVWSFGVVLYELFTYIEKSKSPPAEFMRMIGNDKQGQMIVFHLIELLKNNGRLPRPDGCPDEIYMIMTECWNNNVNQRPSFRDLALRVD
parameterMeasured: IC50

1. CC(C)[C@@H](Nc1cncc(-c2c[nH]c3ncc(-c4cnn(C)c4)cc23)c1)C(=O)NCC(F)(F)F :: ≤ 10 nM

input: GET /values?readout=IC50&item= `CC(C)[C@H](Nc1cncc(-c2c[nH]c3ncc(C#N)cc23)c1)C(=O)NCC(F)(F)F`
output: 10 to 500 nM

input: IC50 for CC(C)OC(=O)Nc1cnc2[nH]cc(-c3cncc(NC(C(=O)NCC(F)(F)F)C(C)C)c3)c2c1 (stereo not shown) ?
output: 10 to 500 nM

input: Given the entry `CNC(=O)Nc1cnc2[nH]cc(-c3cncc(N[C@H](C(=O)NCC(F)(F)F)C(C)C)c3)c2c1` , report its measured IC50.
output: 10 to 500 nM

* * *

target: JAK2 (Homo sapiens, UniProt O60674); construct: recombinant purified GST-tagged catalytic domain for each enzyme; assay: Jak Biochemical HTRF Assay (JAK2); details: recombinant purified GST-tagged catalytic domain, [ATP] 8.5 μM, values given as range classes
pIC50: −log10 of the molar value.
parameterMeasured: pIC50

Observe how each entry below is paired with its result.
1. CC(C(=O)NCC(F)(F)F)n1ccc2ncc(-c3c[nH]c4ncc(Cl)cc34)cc21 (stereo not shown) :: 6.30 to 8.00
2. C[C@H](Nc1cc(-c2c[nH]c3ncc(Cl)cc23)cnc1F)C(=O)NCC(F)(F)F :: 6.30 to 8.00
3. CC(C)[C@@H](Nc1cncc(-c2c[nH]c3ncc(COCCN4CCCC4)cc23)c1)C(=O)NCC(F)(F)F :: 6.30 to 8.00

input: Which pIC50 value belongs to `C[C@@H](Nc1cncc(-c2c[nH]c3ncc(C(N)=O)cc23)c1)C(=O)NCC(F)(F)F` ?
output: 6.30 to 8.00

input: Item `O=C(NCC(F)(F)F)[C@H]1CCCC[C@H]1Nc1cnnc(-c2c[nH]c3ncc(Cl)cc23)n1` has what recorded pIC50?
output: 6.30 to 8.00

input: Look up pIC50 for this compound: `CC(C)[C@@H](Nc1cncc(-c2c[nH]c3ncc(C(=O)N(C)C)cc23)c1)C(=O)NCC(F)(F)F`
output: < 6.30

input: Name the reported pIC50 value associated with the compound `C[C@@H](Nc1cnnc(-c2c[nH]c3ncc(C(F)(F)F)cc23)c1)C(=O)NCC(F)(F)F`
output: 6.30 to 8.00
